# Test System: T1, human TL1A extracellular domain with N-terminal HIS and FLAG tag (human, UniProt O95150 72-251)
# T1 construct: the whole entry is named
# T1 sequence: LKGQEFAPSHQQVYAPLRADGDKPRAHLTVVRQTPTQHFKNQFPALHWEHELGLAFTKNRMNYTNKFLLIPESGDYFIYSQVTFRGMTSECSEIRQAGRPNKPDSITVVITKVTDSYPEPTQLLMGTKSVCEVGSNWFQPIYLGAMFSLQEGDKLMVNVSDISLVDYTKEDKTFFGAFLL
# Assay Text: SPR Run 4, purified Ab captured on Protein A, TL1A 5 ug/mL, timepoint 220
Cut-off 80 RU on TL1A Binding Level (Late): below means Fulfilled, at or above means Not fulfilled.

Known results for binders:
Binder	Label Value
320-313 (antibody, human IgG1, name in Kabat numbering, V domains shown, human IgG1, lambda) VH: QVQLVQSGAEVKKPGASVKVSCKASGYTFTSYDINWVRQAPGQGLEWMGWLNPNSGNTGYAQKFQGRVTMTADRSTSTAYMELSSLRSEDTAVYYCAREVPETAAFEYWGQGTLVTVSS VL: QSVLTQPPSVSGAPGQRVTISCTSSSSDIGAGLGVHWYQQLPGTAPKLLIEGYYNRPSGVPDRFSGSKSGTSASLTITGLLPEDEGDYYCHSYDGTLSALFGGGTKLTVLG	Not fulfilled
320-343 (antibody, human IgG1, name in Kabat numbering, V domains shown, human IgG1, lambda) VH: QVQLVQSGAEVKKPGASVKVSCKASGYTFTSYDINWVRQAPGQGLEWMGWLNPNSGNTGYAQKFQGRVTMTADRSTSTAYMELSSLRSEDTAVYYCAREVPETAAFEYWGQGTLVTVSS VL: QSVLTQPPSVSGAPGQRVTISCTSSSSDIGAGLGVHWYQQLPGTAPKLLIEGYYNRPSGVPDRFSGSKSGTSASLTITGLLPEDEGDYYCQSYDDTLSALFGGGTKLTVLG	Not fulfilled
320-371 (antibody, human IgG1, name in Kabat numbering, V domains shown, human IgG1, lambda) VH: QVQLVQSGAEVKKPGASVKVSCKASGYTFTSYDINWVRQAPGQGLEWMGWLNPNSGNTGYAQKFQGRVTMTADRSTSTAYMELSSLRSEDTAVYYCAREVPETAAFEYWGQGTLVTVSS VL: QSVLTQPPSVSGAPGQRVTISCTSSSSDIGAGLGVHWYQQLPGTAPKLLIEGYYNRPSGVPDRFSGSKSGTSASLTITGLLPEDEGDYYCQSYDGTLYALFGGGTKLTVLG	Fulfilled
320-320 (antibody, human IgG1, name in Kabat numbering, V domains shown, human IgG1, lambda) VH: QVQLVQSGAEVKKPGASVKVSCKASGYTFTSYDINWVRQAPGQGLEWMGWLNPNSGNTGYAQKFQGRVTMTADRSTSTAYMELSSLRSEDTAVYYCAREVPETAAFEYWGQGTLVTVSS VL: QSVLTQPPSVSGAPGQRVTISCTSSSSDIGAGLGVHWYQQLPGTAPKLLIEGYYNRPSGVPDRFSGSKSGTSASLTITGLLPEDEGDYYCQDYDGTLSALFGGGTKLTVLG	Fulfilled
320-327 (antibody, human IgG1, name in Kabat numbering, V domains shown, human IgG1, lambda) VH: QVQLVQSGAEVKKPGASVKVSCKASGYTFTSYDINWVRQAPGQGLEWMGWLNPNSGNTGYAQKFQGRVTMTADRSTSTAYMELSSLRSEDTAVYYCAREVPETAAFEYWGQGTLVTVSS VL: QSVLTQPPSVSGAPGQRVTISCTSSSSDIGAGLGVHWYQQLPGTAPKLLIEGYYNRPSGVPDRFSGSKSGTSASLTITGLLPEDEGDYYCQSQDGTLSALFGGGTKLTVLG	Not fulfilled

Confirm or reject: TL1A Binding Level (Late) of 320-356 (antibody, human IgG1, name in Kabat numbering, V domains shown, human IgG1, lambda) VH: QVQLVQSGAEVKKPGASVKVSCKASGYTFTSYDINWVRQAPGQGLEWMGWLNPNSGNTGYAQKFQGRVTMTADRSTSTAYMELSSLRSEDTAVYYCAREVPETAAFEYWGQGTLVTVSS VL: QSVLTQPPSVSGAPGQRVTISCTSSSSDIGAGLGVHWYQQLPGTAPKLLIEGYYNRPSGVPDRFSGSKSGTSASLTITGLLPEDEGDYYCQSYDGWLSALFGGGTKLTVLG lies strictly below 80 RU Not fulfilled

Confirm or reject: TL1A Binding Level (Late) of 320-355 (antibody, human IgG1, name in Kabat numbering, V domains shown, human IgG1, lambda) VH: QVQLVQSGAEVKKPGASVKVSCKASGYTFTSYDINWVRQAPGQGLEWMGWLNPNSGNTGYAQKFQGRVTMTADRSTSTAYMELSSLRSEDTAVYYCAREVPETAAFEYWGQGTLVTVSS VL: QSVLTQPPSVSGAPGQRVTISCTSSSSDIGAGLGVHWYQQLPGTAPKLLIEGYYNRPSGVPDRFSGSKSGTSASLTITGLLPEDEGDYYCQSYDGLLSALFGGGTKLTVLG lies strictly below 80 RU Fulfilled
